tested on: NCI-H2170; assay: relative viability (nuclei count vs DMSO), 5 days (fraction); higher = more cells survive; details: first compound 0.002 µM
Task for the reader: assign each of the following compounds its reported relative viability.
Numbers only.

Some solved cases for reference:
compound	recordedValue
CC(=O)O[C@@]12CO[C@@H]1C[C@H](O)[C@@]1(C)C(=O)[C@H](O)C3=C(C)[C@@H](OC(=O)[C@H](O)[C@@H](NC(=O)OC(C)(C)C)c4ccccc4)C[C@@](O)([C@@H](OC(=O)c4ccccc4)[C@H]21)C3(C)C [Docetaxel] + CS(=O)(=O)N1CCN(Cc2cc3nc(-c4cccc5[nH]ncc45)nc(N4CCOCC4)c3s2)CC1 [Pictilisib] (partner 1 µM)	0.183
CC(=O)O[C@@]12CO[C@@H]1C[C@H](O)[C@@]1(C)C(=O)[C@H](O)C3=C(C)[C@@H](OC(=O)[C@H](O)[C@@H](NC(=O)OC(C)(C)C)c4ccccc4)C[C@@](O)([C@@H](OC(=O)c4ccccc4)[C@H]21)C3(C)C [Docetaxel] + Nc1ncn([C@H]2C[C@H](O)[C@@H](CO)O2)c(=O)n1 [Decitabine] (partner 2 µM)	0.371
CC(=O)O[C@@]12CO[C@@H]1C[C@H](O)[C@@]1(C)C(=O)[C@H](O)C3=C(C)[C@@H](OC(=O)[C@H](O)[C@@H](NC(=O)OC(C)(C)C)c4ccccc4)C[C@@](O)([C@@H](OC(=O)c4ccccc4)[C@H]21)C3(C)C [Docetaxel] + CS(=O)(=O)CCNCc1ccc(-c2ccc3ncnc(Nc4ccc(OCc5cccc(F)c5)c(Cl)c4)c3c2)o1 [Lapatinib] (partner 2 µM)	0.194

Could I get relative viability for every one of these entries?
1. CC(=O)O[C@@]12CO[C@@H]1C[C@H](O)[C@@]1(C)C(=O)[C@H](O)C3=C(C)[C@@H](OC(=O)[C@H](O)[C@@H](NC(=O)OC(C)(C)C)c4ccccc4)C[C@@](O)([C@@H](OC(=O)c4ccccc4)[C@H]21)C3(C)C [Docetaxel] + NC(=O)Nc1cc(-c2cccc(F)c2)sc1C(=O)N[C@H]1CCCNC1 [AZD7762] (partner 0.2 µM)
2. CC(=O)O[C@@]12CO[C@@H]1C[C@H](O)[C@@]1(C)C(=O)[C@H](O)C3=C(C)[C@@H](OC(=O)[C@H](O)[C@@H](NC(=O)OC(C)(C)C)c4ccccc4)C[C@@](O)([C@@H](OC(=O)c4ccccc4)[C@H]21)C3(C)C [Docetaxel] + Cc1cc(Nc2cc(N3CCN(C)CC3)nc(Sc3ccc(NC(=O)C4CC4)cc3)n2)n[nH]1 [Tozasertib] (partner 0.1 µM)

A)
1. 0.581
2. 0.43

---

system: EKVX; assay: relative viability (nuclei count vs DMSO), 5 days (fraction); higher = more cells survive; conditions: first compound 500 µM
assayReadout: relative viability
Answers are plain numbers.

Some solved cases for reference:
molecule	relative viability
O=C(O)CCCCC(CCSCc1ccccc1)SCc1ccccc1 (centres undefined) [CPI-613] + COc1cc2c(Oc3ccc(NC(=O)C4(C(=O)Nc5ccc(F)cc5)CC4)cc3F)ccnc2cc1OCCCN1CCOCC1 [Foretinib] (partner 0.25 µM)	0.531
O=C(O)CCCCC(CCSCc1ccccc1)SCc1ccccc1 (centres undefined) [CPI-613] + CS(=O)(=O)CCNCc1ccc(-c2ccc3ncnc(Nc4ccc(OCc5cccc(F)c5)c(Cl)c4)c3c2)o1 [Lapatinib] (partner 2 µM)	0.206
O=C(O)CCCCC(CCSCc1ccccc1)SCc1ccccc1 (centres undefined) [CPI-613] + CC(=O)Nc1cccc(-n2c(=O)n(C3CC3)c(=O)c3c(Nc4ccc(I)cc4F)n(C)c(=O)c(C)c32)c1 [Trametinib] (partner 0.02 µM)	0.325

We next turn to a different molecule, shown below.
Q) GET /values?readout=relative viability&system=EKVX&item= O=C(O)CCCCC(CCSCc1ccccc1)SCc1ccccc1 (centres undefined) [CPI-613] + COc1cccc2cc(-c3nc([C@H]4CC[C@H](C(=O)O)CC4)n4ncnc(N)c34)[nH]c12 [OSI-027] (partner 0.5 µM)
A) 0.693

---

system: NCI-H322M; experiment: relative viability (nuclei count vs DMSO), 5 days (fraction); higher = more cells survive; conditions: first compound 0.1265 µM
assayReadout: relative viability
Give bare numbers.

compound	recordedValue
Cc1sc2c(c1C)C(c1ccc(Cl)cc1)=N[C@@H](CC(=O)OC(C)(C)C)c1nnc(C)n1-2 [JQ1] + C[C@@H](Oc1cc(-c2cnn(C3CCNCC3)c2)cnc1N)c1c(Cl)ccc(F)c1Cl [Crizotinib] (partner 1 µM)	0.839

Q) Please report the recorded relative viability for Cc1sc2c(c1C)C(c1ccc(Cl)cc1)=N[C@@H](CC(=O)OC(C)(C)C)c1nnc(C)n1-2 [JQ1] + COc1cc2c(Oc3ccc(NC(=O)C4(C(=O)Nc5ccc(F)cc5)CC4)cc3F)ccnc2cc1OCCCN1CCOCC1 [Foretinib] (partner 0.25 µM) .
A) 1.15

---

tested on: NCI-H23; experiment: relative viability (nuclei count vs DMSO), 5 days (fraction); higher = more cells survive; conditions: first compound 0.253 µM
assayReadout: relative viability
Answers are plain numbers.

compound	relative viability
Cc1cnc(-c2cnc(NCCNc3ccc(C#N)cn3)nc2-c2ccc(Cl)cc2Cl)[nH]1 + Nc1nc2[nH]cc(CCc3ccc(C(=O)N[C@@H](CCC(=O)O)C(=O)O)cc3)c2c(=O)[nH]1 [Pemetrexed] (partner 0.2 µM)	0.634

Could I get relative viability for every one of these entries?
1. O=c1[nH]c2ccccc2n1C1CCN(CCCC(c2ccc(F)cc2)c2ccc(F)cc2)CC1 [Pimozide] + CS(=O)(=O)N1CCN(Cc2cc3nc(-c4cccc5[nH]ncc45)nc(N4CCOCC4)c3s2)CC1 [Pictilisib] (partner 1 µM)
2. Cc1cnc(-c2cnc(NCCNc3ccc(C#N)cn3)nc2-c2ccc(Cl)cc2Cl)[nH]1 + CS(=O)(=O)N1CCN(Cc2cc3nc(-c4cccc5[nH]ncc45)nc(N4CCOCC4)c3s2)CC1 [Pictilisib] (partner 1 µM)

A)
1: 0.431; 2: 0.56

Q) Please report the recorded relative viability for Cc1cnc(-c2cnc(NCCNc3ccc(C#N)cn3)nc2-c2ccc(Cl)cc2Cl)[nH]1 + C[C@]1(O)C[C@@H](c2nc(-c3ccc4ccc(-c5ccccc5)nc4c3)c3c(N)nccn32)C1 [Linsitinib] (partner 1 µM) .
A) 0.555

---

tested on: LOU-NH91; assay: relative viability (nuclei count vs DMSO), 5 days (fraction); higher = more cells survive; details: first compound 0.1581 µM
Task for the reader: assign each of the following compounds its reported relative viability.
Give bare numbers.

Could I get relative viability for every one of these entries?
1. Nc1ccn([C@@H]2O[C@H](CO)[C@@H](O)[C@@H]2O)c(=O)n1 [Cytarabine] + CS(=O)(=O)N1CCN(Cc2cc3nc(-c4cccc5[nH]ncc45)nc(N4CCOCC4)c3s2)CC1 [Pictilisib] (partner 1 µM)
2. COc1cc2nccc(Oc3ccc(NC(=O)Nc4cc(C)on4)c(Cl)c3)c2cc1OC [Tivozanib] + CC(=O)Nc1cccc(-n2c(=O)n(C3CC3)c(=O)c3c(Nc4ccc(I)cc4F)n(C)c(=O)c(C)c32)c1 [Trametinib] (partner 0.02 µM)
3. COc1cc2nccc(Oc3ccc(NC(=O)Nc4cc(C)on4)c(Cl)c3)c2cc1OC [Tivozanib] + O=C(c1cc(Cc2n[nH]c(=O)c3ccccc23)ccc1F)N1CCN(C(=O)C2CC2)CC1 [Olaparib] (partner 8 µM)
4. COc1cc2nccc(Oc3ccc(NC(=O)Nc4cc(C)on4)c(Cl)c3)c2cc1OC [Tivozanib] + COc1cc2c(Oc3ccc(NC(=O)C4(C(=O)Nc5ccc(F)cc5)CC4)cc3F)ccnc2cc1OCCCN1CCOCC1 [Foretinib] (partner 0.25 µM)

A)
1. 0.385
2. 0.744
3. 0.891
4. 0.982

---

Task for the reader: assign each of the following compounds its reported relative viability.
tested on: SK-LU-1; experiment: relative viability (nuclei count vs DMSO), 5 days (fraction); higher = more cells survive; conditions: first compound 0.006325 µM
One number for each entry.

Could I get relative viability for every one of these entries?
1. CC(=O)O[C@@]12CO[C@@H]1C[C@H](O)[C@@]1(C)C(=O)[C@H](O)C3=C(C)[C@@H](OC(=O)[C@H](O)[C@@H](NC(=O)OC(C)(C)C)c4ccccc4)C[C@@](O)([C@@H](OC(=O)c4ccccc4)[C@H]21)C3(C)C [Docetaxel] + CC(=O)c1c(C)c2cnc(Nc3ccc(N4CCNCC4)cn3)nc2n(C2CCCC2)c1=O [Palbociclib] (partner 0.5 µM)
2. CC(=O)O[C@@]12CO[C@@H]1C[C@H](O)[C@@]1(C)C(=O)[C@H](O)C3=C(C)[C@@H](OC(=O)[C@H](O)[C@@H](NC(=O)OC(C)(C)C)c4ccccc4)C[C@@](O)([C@@H](OC(=O)c4ccccc4)[C@H]21)C3(C)C [Docetaxel] + C[C@@H](Oc1cc(-c2cnn(C3CCNCC3)c2)cnc1N)c1c(Cl)ccc(F)c1Cl [Crizotinib] (partner 1 µM)
3. CC(=O)O[C@@]12CO[C@@H]1C[C@H](O)[C@@]1(C)C(=O)[C@H](O)C3=C(C)[C@@H](OC(=O)[C@H](O)[C@@H](NC(=O)OC(C)(C)C)c4ccccc4)C[C@@](O)([C@@H](OC(=O)c4ccccc4)[C@H]21)C3(C)C [Docetaxel] + Cc1nc(Nc2ncc(C(=O)Nc3c(C)cccc3Cl)s2)cc(N2CCN(CCO)CC2)n1 [Dasatinib] (partner 0.075 µM)
4. CC(=O)O[C@@]12CO[C@@H]1C[C@H](O)[C@@]1(C)C(=O)[C@H](O)C3=C(C)[C@@H](OC(=O)[C@H](O)[C@@H](NC(=O)OC(C)(C)C)c4ccccc4)C[C@@](O)([C@@H](OC(=O)c4ccccc4)[C@H]21)C3(C)C [Docetaxel] + O=C(c1cc(Cc2n[nH]c(=O)c3ccccc23)ccc1F)N1CCN(C(=O)C2CC2)CC1 [Olaparib] (partner 8 µM)

A)
0.265
0.249
0.122
0.256
